- PROTOCOL_NOTES: Human liver microsomal stability experiment
- Assay type: in vitro ADME
- EXPERIMENTAL_CONTEXT: human liver microsomes, NADPH, 37 °C
PROPERTY_MEASURED: half-life (min)
Entry rule: numbers only, all in min.

[[record]]
compound = "CCn1c(-c2cc(C#CCN3CCC(C#N)CC3)cnc2[C@H](C)OC)c2c3cc(ccc31)-c1csc(n1)C[C@H](NC(=O)[C@H]1[C@H](C)[C@@H]1C)C(=O)N1CCC[C@H](N1)C(=O)OCC(C)(C)C2 (atropisomer, axis not shown; (Ra))"
output_unit = "min"
observed_measurement = 18.1


Consider the compound CCn1c(-c2cc(C#CCN3CCN(C(C)=O)CC3)cnc2[C@H](C)OC)c2c3cc(ccc31)-c1csc(n1)C[C@H](NC(=O)[C@H]1[C@H](C)[C@@H]1C)C(=O)N1CCC[C@H](N1)C(=O)OCC(C)(C)C2 (atropisomer, axis not shown) [Control compound 2] . State its measured half-life. 9.8

Consider the compound CCn1c(-c2cc(C#CCN3CCC(C#N)(CN)CC3)cnc2[C@H](C)OC)c2c3cc(ccc31)-c1coc(n1)C[C@H](NC(=O)[C@H]1[C@H](C)[C@@H]1C)C(=O)N1CCC[C@H](N1)C(=O)OCC(C)(C)C2 (atropisomer, axis not shown; (Ra)) . State its measured half-life. 16.4

Consider the compound CCn1c(-c2cc(C#CCN3CCC(C#N)(CN)CC3)cnc2[C@H](C)OC)c2c3cc(ccc31)-c1csc(n1)C[C@H](NC(=O)[C@H]1[C@H](C)[C@@H]1C)C(=O)N1CCC[C@H](N1)C(=O)OCC(C)(C)C2 (atropisomer, axis not shown; (Ra)) . State its measured half-life. 43.4

---

- System: AsPC-1 cells
- PROTOCOL_NOTES: 3D cell proliferation assay (CellTiter Glo-3D), AsPC-1
- Assay type: cell-based, human
- EXPERIMENTAL_CONTEXT: AsPC-1 cells (KRAS G12D), 3D, 2% FBS, 5 days; read-out: AsPC-1 AP IC50
PROPERTY_MEASURED: IC50 (pM)
Entry rule: numbers only, all in pM.

Known IC50 results, listed for orientation:
[[record]]
compound = "CCn1c(-c2cc(C#CCN3CCC(C#N)(CN)CC3)cnc2[C@H](C)OC)c2c3cc(ccc31)-c1csc(n1)C[C@H](NC(=O)[C@H]1[C@@H]3COC[C@@H]31)C(=O)N1CCC[C@H](N1)C(=O)OCC(C)(C)C2 (atropisomer, axis not shown; (Ra)) [Compound Z52]"
property_measured = "IC50"
observed_measurement = 80

[[record]]
compound = "CO[C@@H](C)c1ncc(C#CCN2CCS(=O)(=O)CC2)cc1-c1c2c3cc(ccc3n1CC(C)O)-c1csc(n1)C[C@H](NC(=O)[C@H]1[C@H](C)[C@@H]1C)C(=O)N1CCC[C@H](N1)C(=O)OCC(C)(C)C2 (atropisomer, axis not shown; (Ra)) [Compound Z3]"
property_measured = "IC50"
observed_measurement = 180

[[record]]
compound = "CCn1c(-c2cc(C#CCN3CCC(C#N)(CN)CC3)cnc2[C@H](C)OC)c2c3cc(ccc31)-c1coc(n1)C[C@H](NC(=O)[C@H]1[C@@H]3COC[C@@H]31)C(=O)N1CCC[C@H](N1)C(=O)OCC(C)(C)C2 (atropisomer, axis not shown; (Ra)) [Compound Z166]"
property_measured = "IC50"
observed_measurement = 120

[[record]]
compound = "CCn1c(-c2cc(C#CCN3CCN(C(=O)CO)CC3)cnc2[C@H](C)OC)c2c3cc(ccc31)-c1csc(n1)C[C@H](NC(=O)[C@H]1[C@@H]3COC[C@@H]31)C(=O)N1CCC[C@H](N1)C(=O)OCC(C)(C)C2 (atropisomer, axis not shown; (Ra)) [Compound Z34]"
property_measured = "IC50"
observed_measurement = 770


Consider the compound CCn1c(-c2cc(C#CCN3CCC(C#N)(CN)CC3)c[n+]([O-])c2[C@H](C)OC)c2c3cc(ccc31)-c1csc(n1)C[C@H](NC(=O)[C@H]1[C@@H]3COC[C@@H]31)C(=O)N1CCC[C@H](N1)C(=O)OCC(C)(C)C2 (atropisomer, axis not shown; (Ra)) [Compound Z64-1] . State its measured IC50. 3770
